Data provenance is ChEMBL document CHEMBL1146871.

Property: Ki; scope: individual compounds
molecular target: D(4) dopamine receptor (Homo sapiens, UniProt P21917)
Sequence (P21917 whole entry): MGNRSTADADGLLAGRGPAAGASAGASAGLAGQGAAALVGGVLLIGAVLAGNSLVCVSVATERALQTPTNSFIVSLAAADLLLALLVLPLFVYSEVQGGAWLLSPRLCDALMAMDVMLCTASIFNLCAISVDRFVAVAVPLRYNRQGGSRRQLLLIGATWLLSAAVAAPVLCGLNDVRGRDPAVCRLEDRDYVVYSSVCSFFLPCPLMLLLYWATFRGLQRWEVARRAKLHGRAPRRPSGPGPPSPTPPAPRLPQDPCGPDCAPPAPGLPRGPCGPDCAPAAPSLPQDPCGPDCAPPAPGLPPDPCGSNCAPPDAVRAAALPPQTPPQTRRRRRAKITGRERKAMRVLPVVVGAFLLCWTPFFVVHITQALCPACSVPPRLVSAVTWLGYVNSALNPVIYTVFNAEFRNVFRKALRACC
reported endpoint: Ki (µM)

| mol | reported endpoint | measurement |
| --- | --- | --- |
| Cc1cccc(C)c1C(=O)NN1c2ccc(Cl)cc2N=C(N2CCN(C)CC2)c2ccccc21 | Ki | 1.87 |
| Cc1cccc(N)c1C(=O)NN1c2ccc(Cl)cc2N=C(N2CCN(C)CC2)c2ccccc21 | Ki | 4.85 |

====

target: UniProt:P14416; test: Displacement of [3H]methylspiperone from human dopamine D2 receptor expressed in CHO cells; assay type: cell-based
Sequence (P14416 whole entry): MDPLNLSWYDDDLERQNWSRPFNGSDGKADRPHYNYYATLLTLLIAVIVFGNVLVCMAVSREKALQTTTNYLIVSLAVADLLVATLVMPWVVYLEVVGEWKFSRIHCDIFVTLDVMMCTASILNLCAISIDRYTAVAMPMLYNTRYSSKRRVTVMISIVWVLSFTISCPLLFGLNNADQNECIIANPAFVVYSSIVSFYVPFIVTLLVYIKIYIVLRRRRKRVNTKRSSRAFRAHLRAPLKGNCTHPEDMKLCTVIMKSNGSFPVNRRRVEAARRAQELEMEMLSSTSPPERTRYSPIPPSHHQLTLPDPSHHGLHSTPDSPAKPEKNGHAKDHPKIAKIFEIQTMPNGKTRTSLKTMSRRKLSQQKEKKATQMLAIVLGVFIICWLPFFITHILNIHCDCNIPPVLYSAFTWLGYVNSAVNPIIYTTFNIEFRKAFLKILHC
Threshold-based label: Ki under 600 nM gives Y, Ki not under 600 nM gives N.

| mol | answer label |
| --- | --- |
| CN1CCN(C2=Nc3cc(Cl)ccc3N(NC(=O)c3c(N)cccc3C(F)(F)F)c3ccccc32)CC1 | Y |
| CN1CCN(C2=Nc3cc(Cl)ccc3N(N)c3ccccc32)CC1 | N |
| Cc1cccc(C(=O)NN2c3ccc(Cl)cc3N=C(N3CCN(C)CC3)c3ccccc32)c1 | Y |
| CN1CCN(C2=Nc3cc(Cl)ccc3N(NC(=O)c3cnn(-c4ccccc4)c3C(F)(F)F)c3ccccc32)CC1 | N |
| CN1CCN(C2=Nc3cc(Cl)ccc3N(NC(=O)c3ccccc3F)c3ccccc32)CC1 | Y |
